- target entity: HCV NS3 protease type 1b/NS4A cofactor peptide (Hepatitis C virus genotype 1b, UniProt P26663)
- Construct: recombinant HCV NS3 protease (amino acid 1027 to 1206) was cloned in the pET11d bacterial expression vector; made in house; host or cells: E. coli BL21(DE3)pLysS
- Sequence (P26663 1027-1206, other chains not shown): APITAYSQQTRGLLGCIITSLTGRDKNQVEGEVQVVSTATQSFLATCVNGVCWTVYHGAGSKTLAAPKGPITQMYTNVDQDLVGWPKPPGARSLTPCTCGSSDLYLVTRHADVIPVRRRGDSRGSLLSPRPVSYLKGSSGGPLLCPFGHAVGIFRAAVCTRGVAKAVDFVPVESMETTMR
- protocol details: Recombinant HCV NS3 protease/NS4A cofactor peptide radiometric assay
- Assay type: biochemical, HCV genotype 1b
- test parameters: Table 2, unmarked values: NS3 protease/NS4A cofactor peptide radiometric assay; read-out: IC50
pIC50: −log10 of the molar value. Where a SMILES comes first, the peptide text is derived from it. [ ]: non-standard residue; d: D form. The star is where a group is joined. CH2(1-naphthyl) = c1ccc2c(C*)cccc2c1; Hyp = O=C(O)[C@@H]1C[C@@H](O)CN1; Chg = N[C@H](C(=O)O)C1CCCCC1; Nva = CCC[C@H](N)C(=O)O; X1 = c1ccc2cc(C*)ccc2c1; X4 = Brc1cc(Br)cc(C*)c1; Ac3c = NC1(C(=O)O)CC1; Bn = c1ccc(C*)cc1
Reported values of pIC50 for individual entries

- molecule: "CC(=O)N[C@H](C(=O)N[C@H](C(=O)N1C[C@H](OCc2cccc3ccccc23)C[C@H]1C(=O)NC1(C(=O)O)CC1)C(C)C)C1CCCCC1 [compound 227] (Ac-[Chg]V[Hyp](CH2(1-naphthyl))[Ac3c]-OH)"
  pIC50: 5.52
- molecule: "CC(=O)N[C@H](C(=O)N[C@H](C(=O)N1C[C@H](OCc2cc(Br)cc(Br)c2)C[C@H]1C(=O)NC1(C(=O)O)CC1)C(C)C)C1CCCCC1 [compound 272] (Ac-[Chg]V[Hyp](X4)[Ac3c]-OH)"
  pIC50: 4.57
- molecule: "CCC[C@H](NC(=O)[C@@H]1C[C@@H](OCc2ccc3ccccc3c2)CN1C(=O)[C@@H](NC(=O)[C@@H](NC(=O)[C@@H](CCC(=O)O)NC(=O)[C@H](CC(=O)O)NC(C)=O)[C@@H](C)CC)C(C)C)C(=O)O [compound 213] (Ac-D[dE]IV[Hyp](X1)[Nva]-OH)"
  pIC50: 7.44
- molecule: "CCC[C@H](NC(=O)[C@@H]1C[C@@H](OCc2ccccc2)CN1C(=O)[C@@H](NC(=O)[C@@H](NC(=O)[C@H](NC(=O)[C@H](CC(=O)O)NC(C)=O)C(C)C)[C@@H](C)CC)C(C)C)C(=O)O [compound 202] (Ac-D[dV]IV[Hyp](Bn)[Nva]-OH)"
  pIC50: 6.03
- molecule: "CC[C@H](C)[C@H](NC(C)=O)C(=O)N[C@H](C(=O)N1C[C@H](OCc2cccc3ccccc23)C[C@H]1C(=O)NC1(C(=O)O)CC1)C(C)C [compound 262] (Ac-IV[Hyp](CH2(1-naphthyl))[Ac3c]-OH)"
  pIC50: 4.40
- molecule: "CCC[C@H](NC(=O)[C@@H]1C[C@@H](OCc2ccccc2)CN1C(=O)[C@@H](NC(=O)[C@@H](NC(=O)[C@@H](CCC(=O)O)NC(=O)[C@H](CC(=O)O)NC(C)=O)C1CCCCC1)C(C)C)C(=O)O [compound 211] (Ac-D[dE][Chg]V[Hyp](Bn)[Nva]-OH)"
  pIC50: 6.92
- molecule: "CC(=O)N[C@H](C(=O)N[C@H](C(=O)N1C[C@H](Oc2cccc(Br)c2)C[C@H]1C(=O)NC1(C(=O)O)CC1)C(C)C)C1CCCCC1"
  pIC50: 4.38
- molecule: "CCC[C@H](NC(=O)[C@@H]1C[C@@H](OCc2cccc3ccccc23)CN1C(=O)[C@@H](NC(=O)[C@@H](NC(=O)[C@H](CC(=O)O)NC(=O)[C@H](CC(=O)O)NC(C)=O)[C@@H](C)CC)C(C)C)C(=O)O [compound 207] (Ac-DDIV[Hyp](CH2(1-naphthyl))[Nva]-OH)"
  pIC50: 6.41

Attribution: patent US6767991B1
